test: S. cerevisiae growth modulation with rapamycin, primary screen, strain BY4716, OD600, 96 h (AID 1091); conditions: higher = more signal, called active from +8 up or from −8 down; further: test concentration not given here
Tag: condition met if measured z-score is not below -0.3, condition not met if it is.

• O=C1C2C=CC(C(O)C=Cc3ccc([N+](=O)[O-])cc3)N(Nc3ccccc3)C2C(=O)N1c1ccccc1 (configuration not stated) = condition met
• CC(C)N1CC=CC23O[C@@H]4/C=C\CCCOC(=O)C4[C@H]2C(=O)N(CCCCCCO)[C@@H]3C1=O (some centres not stated) = condition not met
• C=CCC(OC(C)=O)[C@@H]1[C@@H](N(Cc2cccc3ccccc23)C(=O)Cc2ccc(F)cc2)c2cc(OCCCO)ccc2N1C(=O)c1ccc(-c2ccccc2)cc1 (some centres not stated) = condition met
• CC(C)[C@H]1NC(=O)[C@@]23C(=O)N[C@@H](Cc4ccccc4)C2[C@H](C)[C@@]2(C)O[C@H]2C3/C=C/CCC/C=C/CNC(=O)[C@H](Cc2ccccc2)NC1=O (some centres not stated) = condition not met
• O=C1OCCC=C[C@H]2OC34C=CCN(c5ccc(Cl)cc5)C(=O)[C@H]3N(CCCCCCO)C(=O)[C@@H]4C12 (some centres not stated) = condition not met
• CCOC(=O)C[C@H]1[C@H](OC(=O)c2ccccc2-c2ccccc2)[C@@H](NC(=O)c2ccccc2)c2cc(OCCCO)ccc2N1C(=O)c1ccccc1 = condition met
• CN(C)CCCC[C@@H]1NC(=O)[C@@H]2C[C@H](C(=O)O)[C@H](c3cccc(OCCO)c3)N2C1=O = condition met

* * *

experiment: binders from COS7 lysate, DM2A8 probe, primary screen, torsin A project, cell lysate, small-molecule microarray, fluorescence 635/667 (AID 1065); settings: higher = more signal, COS7 lysate expressing mutant human TOR1A
Entries and their composite z-score values follow.
Outcome measure: composite z-score

• C=C(/C(=C/C[C@H](OC(=O)c1ccncc1)c1cccc(OCCO)c1)c1cnc2ccccc2c1)C(C)C = 0.857
• CC1CC/C=C\[C@H]2OC34C=CCN(CCN5CCOCC5)C(=O)[C@H]3N(C(C)CO)C(=O)[C@@H]4C2C(=O)O1 (some centres undefined) = -1.61
• COc1ccc(NC(=O)O[C@H]2[C@@H]3OC(=O)[C@H](Cc4cccc(Br)c4)C/C=C/C[C@@H](Cc4cccc(Br)c4)C(=O)O[C@H]3[C@@H](OC)O[C@@H]2CO)cc1 = 1.4
• CCOC(=O)C=Cc1ccccc1O = 0.0396

* * *

Entries and their z-score values follow.
target: Luciferin 4-monooxygenase (Photinus pyralis); experiment: firefly luciferase enzyme inhibitors, primary screen, biochemical, luminescence, purified enzyme, 2006 set (AID 1141); conditions: SteadyGlo luminescence, 30 min, higher = more signal, called active from +8 up or from −8 down;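 further: cell-free assay with purified firefly luciferase at 100 ng per well in PBS; test concentration not given here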
Outcome measure: z-score

- CC(C)c1ccc(NN2C(C(O)Cc3ccccc3)C=CC3C(=O)N(c4ccccc4)C(=O)C32)cc1 (stereo not given): -0.959
- CC(C)CNC(=O)[C@@]1(c2ccc([N+](=O)[O-])cc2)CC(=O)N(C2CCCCC2)[C@@H]1c1ccc(CO)cc1: -0.977
- C=CCNC(=O)[C@@H]1[C@H]2C(=O)O[C@H](c3ccccc3)[C@H](c3ccccc3)N2[C@H](c2ccc(O)cc2)[C@@]12C(=O)N(C(=O)OCCOC)c1ccc(C#CCCO)cc12: -0.52
- Cc1ccc(S[C@]2(C(=O)NC(C)C)CC(=O)N(Cc3ccccc3Cl)[C@@H]2c2ccc(CO)cc2)cc1: -0.426
- COC(=O)[C@@]1(Cc2ccccc2)[C@H]2c3cc(C(=O)N(C)C)n(CCn4cc([N+](=O)[O-])nc4C)c3C[C@H]2CN1C(=O)c1ccccc1: -0.0637
- CCOC(=O)C1=CCC(c2ccco2)N(S(=O)(=O)c2ccc(C)cc2)C1 (stereo not given): -1.58
- C=C[C@@H](C)[C@H](O)c1ccc(OCCO)cc1: -15.8
- CN(C)C(=O)[C@@]1(Cc2ccccc2N=[N+]=[N-])N=C(c2ccc(OCCCO)cc2)O[C@H]1c1ccccc1: -2.17
- NC(=O)[C@H]1[C@@H]2C(=O)O[C@@H](c3ccccc3)[C@@H](c3ccccc3)N2[C@@H](c2ccc(O)cc2)[C@]12C(=O)Nc1ccccc12: -0.794
- C=C[C@@H](C)[C@@H](OC(=O)Nc1ccc(SC)cc1)c1ccc(OCCO)cc1: -4.2
- O=C(NCCN1CCOCC1)[C@@H]1c2ccccc2C(=O)N(Cc2ccccc2)[C@H]1c1ccc(CO)cc1: 1.36
- CN1C(=O)C2C=CC(C(O)c3cc(C(F)(F)F)cc(C(F)(F)F)c3)N(NC(=O)OC(C)(C)C)C2C1=O (stereo not given): 0.75
- CC(C)C[C@@H]1NC(=O)[C@H]2C[C@@H](C(=O)NCCCCCN)[C@@H](c3cccc(OCCO)c3)N2C1=O: -1.07
- O=c1cccc(-c2ccco2)o1: 0.405
- Cc1ccc(F)cc1S(=O)(=O)N[C@@H]1CCN(Cc2cccc3[nH]ccc23)C1: -0.0287
- CN1C(=O)[C@@]2(Cc3ccccc3)N=C(c3ccc(OCCCO)cc3)O[C@H]2c2ccccc21: -6.41
- COC(=O)[C@@]1(Cc2ccccc2CN=[N+]=[N-])N=C(c2ccc(OCCCO)cc2)O[C@H]1c1ccccc1: -2.03
- COCCOC(=O)N1C(=O)[C@@]2(c3cc(C#CC4=CCCCC4)ccc31)[C@H](c1ccc(O)cc1)N1[C@H](c3ccccc3)[C@H](c3ccccc3)OC(=O)[C@H]1[C@@H]2C(=O)NC[C@H](O)c1ccccc1: -1.08
- [N-]=[N+]=Nc1ccccc1[C@@H]1OC(c2ccc(OCCCO)cc2)=N[C@]1(Cc1ccccc1)C(=O)NCc1ccccc1: -5.74
- COCCOC(=O)N1C(=O)[C@@]2(c3cc(C#CCNC(N)=O)ccc31)[C@H](c1ccc(OCCO)cc1)N1[C@H](c3ccccc3)[C@H](c3ccccc3)OC(=O)[C@H]1[C@@H]2C(N)=O: -1.83
- [N-]=[N+]=NCc1ccccc1[C@@H]1OC(c2ccc(OCCCO)cc2)=N[C@]1(Cc1ccccc1N=[N+]=[N-])C(=O)N1CCCCC1: -1.61
- O=C1C2C=CC(C(O)c3cc(C(F)(F)F)cc(C(F)(F)F)c3)N(Nc3ccccc3F)C2C(=O)N1c1ccccc1 (stereo not given): 0.668
- COc1cc(NN2C(C(O)C3CCCCC3)C=CC3C(=O)N(c4ccccc4)C(=O)C32)cc(OC)c1OC (stereo not given): -0.45
- COC(=O)[C@@]1(Cc2ccc(OC)cc2)[C@H]2c3cc(C(=O)N4CCCC4)n(Cc4ccc(OC(F)(F)F)cc4)c3C[C@H]2CN1C(=O)c1ccccc1: 2.03
- CCc1cccc(NC(=O)O[C@H]2[C@H](OC(=O)Nc3ccccc3)[C@H](OC(=O)Nc3ccccc3)[C@@H](OC)O[C@@H]2CO)c1: 0.234
- Cc1ccc([C@H]2C(C(=O)O)=C[C@@H](C(C)(C)C)N2S(=O)(=O)c2ccc(C)cc2)cc1: 1.48
- CCOC(=O)C[C@H]1[C@H](OC(=O)c2ccc(C(=O)c3ccccc3)cc2)[C@@H](NC(=O)CC(C)C)c2cc(OCCCO)ccc2N1C(=O)Cc1ccc(OC)cc1: -0.563
- O=C(O)[C@@H]1C[C@@H]2C(=O)N3CCC[C@H]3C(=O)N2[C@@H]1c1cccc(OCCO)c1: -0.485
- COc1ccc(CCNC(=O)[C@@]2(Cc3ccccc3I)c3ccccc3C(=O)N(Cc3ccccc3Cl)[C@H]2c2ccc(CO)cc2)cc1: -0.0513
- CCCCC(=C=CC[C@H](O)c1ccc(OCCO)cc1)C[C@H](O)c1cc(Cl)cc(Cl)c1O: -1.39
